Ref: PubChem BioAssay AID1963863

- Test system: 931267-113-T-J1-PDC KRAS spheroid with HUVEC/MSC, viability
- testDetails: Anticancer human tumor 931267-113-T-J1-PDC patient-derived colon adenocarcinoma cell line growth inhibition [KRAS2]; active = viability on the fitted dose curve at most 10% of control; inactive = the rest
- experimentalSetup: second compound 3.16 µM; first compound 10 µM
Use one of these outcomes when replying: y = active, n = inactive

Known results for molecules:
# molecule, assignedLabel
rows = [
    ("Cn1nccc1Nc1nccc(-c2cc3c(s2)C(C)(C)N(CCN2CCOCC2)C3=O)n1 + C=CC(=O)N1CCN(c2nc(=O)n(-c3c(C)ccnc3C(C)C)c3nc(-c4c(O)cccc4F)c(F)cc23)C(C)C1", "y"),
    ("CC1OCC2(CCN(c3cnc(Sc4ccnc(N)c4Cl)c(N)n3)CC2)C1N (stereo not given) + C=CC(=O)N1CCN(c2nc(OCC3CCCN3C)nc3c2CCN(c2cccc4cccc(C)c24)C3)CC1CC#N", "y"),
    ("CC1(C)CCC(CN2CCN(c3ccc(C(=O)NS(=O)(=O)c4ccc(NCC5CCOCC5)c([N+](=O)[O-])c4)c(Oc4cnc5[nH]ccc5c4)c3)CC2)=C(c2ccc(Cl)cc2)C1 + COc1cc2nc(C)nc(NC(C)c3cc(N)cc(C(F)(F)F)c3)c2cc1OC1CCOC1", "y"),
    ("CC(C)NCC(C(=O)N1CCN(c2ncnc3c2C(C)CC3O)CC1)c1ccc(Cl)cc1 (stereo not given) + C=CC(=O)N1CCN(c2nc(=O)n(-c3c(C)ccnc3C(C)C)c3nc(-c4c(O)cccc4F)c(F)cc23)C(C)C1", "n"),
]

Consider the record given below.
Problem: I would be grateful if you could indicate the recorded call for CC1(C)CCC(CN2CCN(c3ccc(C(=O)NS(=O)(=O)c4ccc(NCC5CCOCC5)c([N+](=O)[O-])c4)c(Oc4cnc5[nH]ccc5c4)c3)CC2)=C(c2ccc(Cl)cc2)C1 + C=CC(=O)N1CCN(c2nc(=O)n(-c3c(C)ccnc3C(C)C)c3nc(-c4c(O)cccc4F)c(F)cc23)C(C)C1 .
Solution: y

---

- System: 931267-113-T-J1-PDC KRAS spheroid with HUVEC/MSC, viability
- testDetails: Anticancer human tumor 931267-113-T-J1-PDC cell line growth inhibition [KRAS2];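 also: compound exposure lasted 7 days before the readout; 100% = DMSO vehicle control viability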
- experimentalSetup: second compound 0.0316 µM; first compound 0.0316 µM; active compounds read low
propertyName: viability, T/C

# molecule, viability, T/C
rows = [
    ("CCNC(=O)CC1N=C(c2ccc(Cl)cc2)c2cc(OC)ccc2-n2c(C)nnc21 (stereo not given) + C=CC(=O)N1CCN(c2nc(OCC3CCCN3C)nc3c2CCN(c2cccc4cccc(C)c24)C3)CC1CC#N", "92%"),
]

Entry under test: COC(=O)c1ccc2c(C(=Nc3ccc(N(C)C(=O)CN4CCN(C)CC4)cc3)c3ccccc3)c(O)[nH]c2c1 + C=CC(=O)N1CCN(c2nc(OCC3CCCN3C)nc3c2CCN(c2cccc4cccc(C)c24)C3)CC1CC#N . Its viability, T/C was 90.5%

---

- Tested on: 931267-113-T-J1-PDC KRAS spheroid with HUVEC/MSC, viability
- testDetails: Anticancer human tumor 931267-113-T-J1-PDC cell line growth inhibition [KRAS2];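 also: compound exposure lasted 7 days before the readout; 100% = DMSO vehicle control viability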
- experimentalSetup: second compound 0.0316 µM; first compound 0.0316 µM; active compounds read low
- From the text: Multicellular complex tumor spheroid response to RAS pathway inhibitors in combination with a targeted agents in patient-derived cell lines with oncogenic KRAS variants from multiple cancer types A high-throughput screen of multi-cell type tumor spheroids was designed to identify active combinations of targeted small molecules and KRAS pathway inhibitors. […] Compounds. […] If the clinical Cmax for an agent had not been determined, the highest concentration tested was 10 microM. […]
propertyName: viability, T/C (%)
Kindly answer with a numeric value in %, unit omitted.

// solved cases for viability, T/C follow
# molecule, systemTested, viability, T/C [%]
data = [
    ("CCN1CCN(Cc2ccc(Nc3ncc(F)c(-c4cc(F)c5nc(C)n(C(C)C)c5c4)n3)nc2)CC1 + C=CC(=O)N1CCN(c2nc(OCC3CCCN3C)nc3c2CCN(c2cccc4cccc(C)c24)C3)CC1CC#N", "931267-113-T-J1-PDC KRAS spheroid with HUVEC/MSC, viability", 70.7),
    ("CN(C)C/C=C/C(=O)Nc1cc2c(Nc3ccc(F)c(Cl)c3)ncnc2cc1O[C@H]1CCOC1 + C=CC(=O)N1CCN(c2nc(OCC3CCCN3C)nc3c2CCN(c2cccc4cccc(C)c24)C3)CC1CC#N", "931267-113-T-J1-PDC KRAS spheroid with HUVEC/MSC, viability", 78.3),
    ("CC(=O)Nc1cccc(-n2c(=O)n(C3CC3)c(=O)c3c(Nc4ccc(I)cc4F)n(C)c(=O)c(C)c32)c1 + C=CC(=O)N1CCN(c2nc(OCC3CCCN3C)nc3c2CCN(c2cccc4cccc(C)c24)C3)CC1CC#N", "931267-113-T-J1-PDC KRAS spheroid with HUVEC/MSC, viability", 13.2),
    ("CC(C)NCC(C(=O)N1CCN(c2ncnc3c2C(C)CC3O)CC1)c1ccc(Cl)cc1 (stereo not given) + C=CC(=O)N1CCN(c2nc(OCC3CCCN3C)nc3c2CCN(c2cccc4cccc(C)c24)C3)CC1CC#N", "931267-113-T-J1-PDC KRAS spheroid with HUVEC/MSC, viability", 111),
]

Documented viability, T/C of CC1(C)CCC(CN2CCN(c3ccc(C(=O)NS(=O)(=O)c4ccc(NCC5CCOCC5)c([N+](=O)[O-])c4)c(Oc4cnc5[nH]ccc5c4)c3)CC2)=C(c2ccc(Cl)cc2)C1 + C=CC(=O)N1CCN(c2nc(OCC3CCCN3C)nc3c2CCN(c2cccc4cccc(C)c24)C3)CC1CC#N : 107
